Numbers sourced from patent US20220025023A1.

# assay system: T1, TDP-211 peptide (human)
# T1 construct: 8-mer of human TDP-43; same ELISA method as for the biotinylated 15-mers
# T1 peptide: FSQYGDVM
# assay name: indirect ELISA, 8-mer peptide library
value type: binding result

ACI-7062-401A2-Ab2 (antibody, IgG1, V domains shown, also called 401A2C6; clone 2) VH: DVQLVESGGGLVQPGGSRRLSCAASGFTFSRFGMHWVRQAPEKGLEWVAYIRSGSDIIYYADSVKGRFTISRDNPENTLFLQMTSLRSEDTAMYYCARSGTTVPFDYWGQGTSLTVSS VL: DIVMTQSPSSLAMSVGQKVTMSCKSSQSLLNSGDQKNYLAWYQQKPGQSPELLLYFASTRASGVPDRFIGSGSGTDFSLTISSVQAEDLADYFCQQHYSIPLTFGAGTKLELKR
no binding
ACI-7062-415C4-Ab1 (antibody, IgG1, V domains shown, also called 415C4C6; clone 14) VH: QVTLKESGPGILQPSQTLSLTCSFSGFSLSTYGIGVGWIRQPSGKGLEWLAHIWWNDNKYYKTALKSRLTISKDTSNNQVFLKIASVDTADSATYYCARVYGNLYYFGYWGQGTTLTVSS VL: DVLMTQTPLSLPVSLGDQASISCRSSQSIVHSTGNTYLEWYLQKPGQSPKLLIYKVSNRFSGVPDRFSGSGSGTDFTLKISRVEAEDLGVYYCFQGSRVPTFGAGTKLELKR
no binding
ACI-7062-416A11-Ab1 (antibody, IgG2a, V domains shown, also called 416A11B3; clone 18) VH: QVTLKESGPGILQSSQTLSLTCSFSGFSLSTYGIGVGWIRQPSGKGLEWLAHIWWNDNKYYNTALKSRLTISKDTSNNQVFLKIASVDTADAATYYCARVYGNLYYFGYWGQGTTLTVSS VL: DVLMTQTPLSLPVSLGDRASISCRSSQSIVHSSGNTYLEWYLQKPGQSPKLLIYKVSNRFSGVPDRFSGSGSGTDFTLKISRVEAEDLGVYYCFQGSRVPTFGAGTKLELKR
no binding
